Catalogue of Binding of CRJB to looped/cyclic peptide (PEPSCAN-ELISA signal) readings, one per entry.
Tested on: human monoclonal antibody CRJB
Type: binding
Response field accepts a number only; no unit should be typed.

Consider the following illustrative entries.
[
  {
    "INPUT SEQUENCE": "GDEAEDFVEVHLPDV",
    "RESULT VALUE": 87
  },
  {
    "INPUT SEQUENCE": "EAEDFVEVHLPDVHN",
    "RESULT VALUE": 93
  },
  {
    "INPUT SEQUENCE": "PDVHNQVSGVDLGLP",
    "RESULT VALUE": 104
  },
  {
    "INPUT SEQUENCE": "VFKDGDEAEDFVEVH",
    "RESULT VALUE": 125
  },
  {
    "INPUT SEQUENCE": "ADPSTVFKDGDEAED",
    "RESULT VALUE": 72
  },
  {
    "INPUT SEQUENCE": "DVHNQVSGVDLGLPN",
    "RESULT VALUE": 113
  }
]

// query Binding of CRJB to looped/cyclic peptide (PEPSCAN-ELISA signal) value for entry `PSTVFKDGDEAEDFV` 101

// query Binding of CRJB to looped/cyclic peptide (PEPSCAN-ELISA signal) value for entry `EVHLPDVHNQVSGVD` 107

* * *

System: human monoclonal antibody CR57
Format: binding
OBSERVATION TYPE: Binding of CR57 to linear peptide (PEPSCAN-ELISA signal)

Param readout= Binding of CR57 to linear peptide (PEPSCAN-ELISA signal); system= human monoclonal antibody CR57; entry= `SGFSYMELKVGYILA` ; returns value. 79

Param readout= Binding of CR57 to linear peptide (PEPSCAN-ELISA signal); system= human monoclonal antibody CR57; entry= `LHSRVFPSGKCSGVA` ; returns value. 78

Param readout= Binding of CR57 to linear peptide (PEPSCAN-ELISA signal); system= human monoclonal antibody CR57; entry= `EESLHNPYPDYRWLR` ; returns value. 76

Param readout= Binding of CR57 to linear peptide (PEPSCAN-ELISA signal); system= human monoclonal antibody CR57; entry= `PEMQSSLLQQHMELL` ; returns value. 62

Param readout= Binding of CR57 to linear peptide (PEPSCAN-ELISA signal); system= human monoclonal antibody CR57; entry= `EECLDALESIMTTKS` ; returns value. 82

Param readout= Binding of CR57 to linear peptide (PEPSCAN-ELISA signal); system= human monoclonal antibody CR57; entry= `LLESSVIPLVHPLAD` ; returns value. 72

Param readout= Binding of CR57 to linear peptide (PEPSCAN-ELISA signal); system= human monoclonal antibody CR57; entry= `ILAIKMNGFTCTGVV` ; returns value. 79

Param readout= Binding of CR57 to linear peptide (PEPSCAN-ELISA signal); system= human monoclonal antibody CR57; entry= `KCSGVAVSSTYCSTN` ; returns value. 88

* * *

System: human monoclonal antibody CRJA
Type: binding
OBSERVATION TYPE: Binding of CRJA to linear peptide (PEPSCAN-ELISA signal)
Response field accepts a number only; no unit should be typed.

Consider the following illustrative entries.
[
  {
    "INPUT SEQUENCE": "LDPYDRSLHSRVFPS",
    "RESULT VALUE": 113
  },
  {
    "INPUT SEQUENCE": "RCHPHVNGVFFNGII",
    "RESULT VALUE": 108
  },
  {
    "INPUT SEQUENCE": "PDACRAAYNWKMAGD",
    "RESULT VALUE": 93
  },
  {
    "INPUT SEQUENCE": "QHMELLESSVIPLVH",
    "RESULT VALUE": 87
  },
  {
    "INPUT SEQUENCE": "SDEIEHLVVEELVRK",
    "RESULT VALUE": 97
  },
  {
    "INPUT SEQUENCE": "MTTKSVSFRRLSHLR",
    "RESULT VALUE": 74
  },
  {
    "INPUT SEQUENCE": "VIPLVHPLADPSTVF",
    "RESULT VALUE": 92
  },
  {
    "INPUT SEQUENCE": "IWMPENPRLGMSCDI",
    "RESULT VALUE": 87
  }
]

Kindly review the next sequence as well.
// query Binding of CRJA to linear peptide (PEPSCAN-ELISA signal) value for entry `DERGLYKSLKGACKL` 76
